Read-out: Lipoprotein lipase (LPL), LPL (gene 4023)
Assay: LTEA_HepaRG_LPL: Life Technologies and Expression Analysis (LTEA) Assay for Lipoprotein lipase (LPL) using HepaRG (AID 2283515)
Conditions: mRNA level, 48 h; actives raise or lower the signal
Activity calls are given as the source filed them. The calls were made as follows: active = hit-call score of the fitted dose curve at least 0.9, where 1 is the maximum; inactive = score below 0.9.
Possible outcomes: active, inactive

[[record]]
compound = "CC(C)(C)c1ccc(O)cc1"
assigned_label = "inactive"

[[record]]
compound = "Cc1ccc([N+](=O)[O-])cc1C"
assigned_label = "inactive"

[[record]]
compound = "ClC(Cl)c1ccccc1"
assigned_label = "inactive"

[[record]]
compound = "CCOP(=S)(Oc1ccc([N+](=O)[O-])cc1)c1ccccc1 (stereo not given)"
assigned_label = "inactive"

[[record]]
compound = "O=[N+]([O-])c1ccc(Cl)c(Cl)c1"
assigned_label = "inactive"

[[record]]
compound = "CCCCCCCc1ccc(O)cc1"
assigned_label = "inactive"

[[record]]
compound = "CCCCN(CCCC)N=O"
assigned_label = "inactive"

[[record]]
compound = "CCCN(CCC)c1c([N+](=O)[O-])cc(C(C)C)cc1[N+](=O)[O-]"
assigned_label = "active"

[[record]]
compound = "CCC(C)(C)c1ccc(O)cc1"
assigned_label = "inactive"

[[record]]
compound = "CCOC(=O)c1ccccc1C(=O)OCC"
assigned_label = "inactive"

[[record]]
compound = "c1nc[nH]n1"
assigned_label = "inactive"

[[record]]
compound = "CCCCN(CCCC)SN(C)C(=O)Oc1cccc2c1OC(C)(C)C2"
assigned_label = "inactive"

[[record]]
compound = "CC(C)(C)OOC(C)(C)C"
assigned_label = "inactive"

[[record]]
compound = "CCOc1ccc(C(C)(C)COCc2cccc(Oc3ccccc3)c2)cc1"
assigned_label = "inactive"

[[record]]
compound = "O=P1(N(CCCl)CCCl)NCCCO1 (stereo not given)"
assigned_label = "inactive"

[[record]]
compound = "ClC1=C(Cl)C2(Cl)C3C(Cl)C(Cl)CC3C1(Cl)C2(Cl)Cl (stereo not given)"
assigned_label = "inactive"

[[record]]
compound = "Cc1ccc(N)cc1N"
assigned_label = "inactive"

[[record]]
compound = "CN(C)C(=O)Cl"
assigned_label = "inactive"

[[record]]
compound = "CCN(CC)c1ccccc1"
assigned_label = "inactive"

[[record]]
compound = "COCCOCCO"
assigned_label = "inactive"

[[record]]
compound = "O=C(O)C1C(C(=O)O)C2(Cl)C(Cl)=C(Cl)C1(Cl)C2(Cl)Cl (stereo not given)"
assigned_label = "inactive"

[[record]]
compound = "ClC(Cl)(Cl)c1ccccc1"
assigned_label = "inactive"

[[record]]
compound = "Nc1ccc2ccccc2c1"
assigned_label = "inactive"

[[record]]
compound = "c1ccc(OP(Oc2ccccc2)Oc2ccccc2)cc1"
assigned_label = "inactive"

[[record]]
compound = "[N-]=[N+]=[N-]"
assigned_label = "active"


---

Assay: ATG_Oct_MLP_CIS: Attagene CIS-FACTORIAL HepG2 Assay for human Octamer-Binding Transcription Factor (Oct) (AID 2282993)
Conditions: HepG2 Attagene cis-factorial Oct reporter, mRNA; actives raise or lower the signal
The source made the active and inactive calls. Rule for the calls: active = hit-call score of the fitted dose curve at least 0.9, where 1 is the maximum; inactive = score below 0.9.
Labels: True for active, False for inactive

[[record]]
compound = "O=S(=O)(c1ccc(O)cc1)c1ccc(O)cc1"
assigned_label = "False"

[[record]]
compound = "COC(N)=O"
assigned_label = "False"

[[record]]
compound = "ClC(Cl)=C(c1ccc(Cl)cc1)c1ccccc1Cl"
assigned_label = "True"

[[record]]
compound = "NNC(N)=S"
assigned_label = "False"

[[record]]
compound = "OCC(F)(F)OC(F)(F)C(F)(F)OC(F)(F)C(F)(F)OC(F)(F)F"
assigned_label = "False"

[[record]]
compound = "CCCCN(CCCC)SN(C)C(=O)Oc1cccc2c1OC(C)(C)C2"
assigned_label = "False"

[[record]]
compound = "CC(=O)CCc1ccc2c(c1)OCO2"
assigned_label = "False"

[[record]]
compound = "CCCCc1ccccc1"
assigned_label = "False"

[[record]]
compound = "O=C(O)C(Cl)Cl"
assigned_label = "False"

[[record]]
compound = "CCCCOCCOP(=O)(OCCOCCCC)OCCOCCCC"
assigned_label = "False"

[[record]]
compound = "N#Cc1c(-c2ccc(Cl)cc2)[nH]c(C(F)(F)F)c1Br"
assigned_label = "True"

[[record]]
compound = "Oc1ccc(I)cc1"
assigned_label = "False"

[[record]]
compound = "CCCCN(CC)C(=O)SCCC"
assigned_label = "False"

[[record]]
compound = "O=C(CBr)OCc1ccccc1"
assigned_label = "False"

[[record]]
compound = "CC(O)C#N (stereo not drawn)"
assigned_label = "False"

[[record]]
compound = "CCN(CC)c1ccccc1"
assigned_label = "False"

[[record]]
compound = "CCOP(=O)(O)C(N)=O"
assigned_label = "False"

[[record]]
compound = "O=P(OCC(Br)CBr)(OCC(Br)CBr)OCC(Br)CBr (stereo not drawn)"
assigned_label = "False"

